- System: Lefty1
- test name: Lefty1 protein binding to printed compounds – biochemical, small-molecule microarray, 635/667 nm fluorescence, primary screen (AID 1139)
- experimental context: fluorescence 635/667, higher = more signal
Classify by measured composite z-score: yes if it is equal to or exceeds 0.6, no if it is smaller.

| compound | discrete label |
| --- | --- |
| O=C1NC(=O)C2C1C=CC(C(O)c1ccc(-c3ccccc3)s1)N2Nc1ccc(Cl)cc1Cl (configuration not stated) | no |
| COC(=O)[C@@]1(Cc2ccc(F)cc2)[C@H]2c3cc(C(=O)N(C)C)n(Cc4ccc(C)o4)c3C[C@H]2CN1C(=O)c1ccccc1 | no |
| CCC(CC)C(O)C1C=CC2C(=O)N(c3ccccc3)C(=O)C2N1Nc1ccccc1 (configuration not stated) | yes |
| COC(=O)C(CC#Cc1ccc2c(c1)[C@]1(C(=O)N2)[C@H](c2ccccc2OCCO)N2[C@H](c3ccccc3)[C@H](c3ccccc3)OC(=O)[C@H]2[C@@H]1C(=O)O)C(=O)OC | no |
| O=C1C2C=CC(C(O)COCc3ccccc3)N(Nc3ccc([N+](=O)[O-])cc3)C2C(=O)N1c1ccccc1 (configuration not stated) | yes |
| Cc1c(NC(=O)/C(C#N)=C/c2cccc([N+](=O)[O-])c2)c(=O)n(-c2ccccc2)n1C | yes |
| CO[C@H]1O[C@H](CO)[C@@H](OC(=O)Nc2ccc(Oc3ccccc3)cc2)[C@H](OC(=O)Nc2ccc3c(c2)OCO3)[C@@H]1OC(=O)Nc1ccc2c(c1)OCO2 | no |

* * *

Parameter: composite z-score. Scope: all listed entries.
- test name: probe aNOTCH3 binding on compound microarray – biochemical, small-molecule microarray, 635/667 nm fluorescence, primary screen (AID 1120);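 note: probe is a biotin-tagged antibody raised against NOTCH3 rather than NOTCH3 protein; score merges spot fluorescence near 667 nm with spot signal to noise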
- experimental context: higher = more signal
metric: composite z-score

| compound | val |
| --- | --- |
| C=CCN1C(=O)[C@]2(Cc3ccccc3)N=C(c3ccc(OCCCO)cc3)O[C@@H]2c2ccccc21 | 0.143 |
| C[N+](C)(C)CCCC[C@@H]1NC(=O)[C@@H]2C[C@H](C(=O)NCCCCCCNC(=O)CS)[C@H](c3ccc(O)cc3)N2C1=O | -0.443 |
| Cc1ccc(S[C@]2(C(=O)O)CC(=O)N(Cc3ccccc3C(F)(F)F)[C@@H]2c2ccc(CO)cc2I)cc1 | -0.0716 |
| CCN(CC)c1ccc(N2CC=CC34O[C@@H]5/C=C\CCC(C)OC(=O)C5[C@H]3C(=O)N(CCCCCO)[C@@H]4C2=O)cc1 (some centres not stated) | -0.222 |
| CC(=O)NCCCC[C@@H]1NC(=O)[C@H]2C[C@@H](C(=O)O)[C@@H](c3ccc(O)cc3)N2C1=O | 0.22 |
| COC(=O)[C@@]1(Cc2ccc(OC)cc2)[C@H]2c3cc(C(=O)N4CCCC4)n(CCCNc4ncc(C(F)(F)F)cc4Cl)c3C[C@H]2CN1C(=O)c1ccccc1 | 1.09 |
| CCOC(=O)C1=CCC(c2ccc(F)cc2)N(S(=O)(=O)c2ccc(C)cc2)C1 (configuration not stated) | 0.0351 |

* * *

- tgt: Torsin-1A-interacting protein 2 (Homo sapiens)
- test name: small molecules binding lysate-expressed LULL1 – cell lysate, human LULL1 lysate, 635/667 nm fluorescence, primary screen (AID 1092);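 note: probe is lysate of COS7 cells overexpressing human LULL1; score merges per-feature 667 nm fluorescence with signal-to-noise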
- experimental context: small-molecule microarray, hLULL1 lysate binding, 635 nm fluorescence; higher = more signal
Label rule, in plain words: composite z-score of 3 and up is YES, under 3 is NO.

| compound | discrete label |
| --- | --- |
| COc1cc2c(cc1O)C(c1cccs1)N(Cc1cccc(OC(F)(F)F)c1)CC2 (configuration not stated) | NO |
| COc1ccc(C(=O)Nc2ccc(CN3C(=O)[C@]4(O[C@H](CC(=O)N5CCC[C@H]5CO)[C@@H]([Si](C)(C)c5ccc(OC)cc5)[C@@H]4C)c4ccccc43)cc2)cc1 | NO |
| COCCCNC(=O)[C@@]1(Cc2ccccc2CN=[N+]=[N-])N=C(c2ccc(OCCCO)cc2)O[C@H]1c1ccccc1CN=[N+]=[N-] | YES |
| O=C(NC1CC1)[C@@H]1c2ccccc2C(=O)N(Cc2cc(F)cc(C(F)(F)F)c2)[C@H]1c1ccc(CO)cc1 | NO |
| [N-]=[N+]=NCc1ccccc1[C@@H]1OC(c2ccc(OCCCO)cc2)=N[C@]1(CCS(=O)(=O)c1ccccc1)C(N)=O | YES |
| CCCCCCCCCCC(O)C1C=CC2C(=O)NC(=O)C2N1Nc1ccc(Cl)cc1Cl (configuration not stated) | NO |
